Test system: Klebsiella pneumoniae
Conditions: Concentration 20 uM; ASSAY_TEST Inhibition of Bacterial Growth; detection method Absorption (OD600); MEDIA CAMHB; plate type 384well; NBS; CORNING #3640; time 18 hr
Description: Antibacterial activity against Klebsiella pneumoniae MDR ATCC 70063 (CO-ADD:GN_003); MIC in CAMBH media using NBS plates, by OD(600)
Entries with a potency or affinity are not part of this list.
ASSAY_ENDPOINT: Inhibition (%)

1. CC(=O)O.CCC(N)Cc1c[nH]c2ccccc12 (stereo not given) [ETRYPTAMINE ACETATE] : 14.32
2. CC(=O)OC1CCC2(C)C(CCC3C2CC(=O)C2(C)C3CC(N3CC3)C2C(C)=O)C1 (stereo not given) : 4.84
3. CN(C)C1CCc2[nH]c3c(F)cc(F)cc3c2C1 (stereo not given) : 23.22
4. N#CC12CNCC1CN=N2 (stereo not given) : 8.95
5. O=C1NC(=O)C(=Cc2csc3ccccc23)C(=O)N1 : 15.53
6. C/C=C(/C)C(=O)O[C@H]1CCN2CC=C(COC(=O)[C@@](O)([C@H](C)OC)C(C)(C)O)[C@H]12 : 12.46
7. COc1cc(OC)cc(C2(C#N)CCN(C)CC2)c1 : 17.67
8. CN1CCN(c2nc(N)cc(O)n2)CC1 : 7.87
9. CN1C(=O)CC[C@@]2(C)C1=CC[C@@H]1[C@@H]2CC[C@@]2(C)[C@H]1CC[C@]2(C)O : 11.27
10. CC1CC(C)OP(=O)(OCCC#N)O1 (stereo not given) : 9.69
11. COc1ccccc1[As](=O)(O)CC(O)COc1ccc(Cl)cc1Cl (stereo not given) : 8.74
12. CC(CC(C#N)(c1ccccc1)c1ccccc1)N1CCCCC1 (stereo not given) : 1.48
13. CC1=CC(O)C(O)C2(C)C1CC1OC(=O)C(O)C3C(C)C(O)C4(O)OCC13C42 (stereo not given) : 12.12
14. CC(C)NC1C2CCC(CC2)C1(O)c1ccc(Cl)c(Cl)c1.CS(=O)(=O)O (stereo not given) : 12.75
15. COc1ccc2c(c1O)[C@]13CCN(C)[C@H](C2)[C@@H]1CCC(=O)C3 : 14.9
16. c1ccc(C2NCCc3[nH]cnc32)cc1 (stereo not given) : 10.31
17. O=[N+]([O-])c1cc(-c2ccc([As](=O)(O)O)cc2)ccc1[As](=O)(O)O : 17.36
18. NN=C1C(Cl)=C(Cl)C(Cl)=C1Cl : 1.32
19. FCCN(CCF)c1cccc(Cl)c1 : 20.4
20. CCC1CCC(C)N(N=O)C1 (stereo not given) : 7.29

* * *

# Inhibition per entry
System: Candida albicans
Settings: 20 µM
Description: Antifungal activity against Candida albicans ATCC 90028 (CO-ADD:FG_001); MIC in YNB media using NBS plates, by OD630
Measured potencies and affinities stand elsewhere.
ASSAY_ENDPOINT: Inhibition (%)

1. C/C=C(/C)C(=O)O[C@H]1CCN2CC=C(COC(=O)[C@@](O)([C@H](C)OC)C(C)(C)O)[C@H]12 : -1.68
2. COc1ccc(C2=CC(c3ccc(OC)c(OC)c3)c3c(c4ccccc4oc3=O)O2)cc1OC (stereo not drawn) : 5.25
3. CC(=O)Nc1ccc([As](=O)(O)c2ccc([N+](=O)[O-])cc2)cc1 : -1.88
4. Cc1ccccc1-n1c(/C=C\c2ccccn2)nc2ccccc2c1=O : 5.08
5. NC(=O)c1ccc(C(=O)Nc2ccc([As](=O)(O)O)cc2)cc1 : -0.15
6. O=C1N(c2nncs2)CCN1[N+](=O)[O-] : 2.04
7. O=C(Nc1ccc(F)cc1)Oc1cccnc1O : 5.85
8. CC(=O)Nc1cc([As](=O)(O)O)ccc1O : 1.06
9. CSc1nc(=O)c(/N=N/c2ccc([As](=O)(O)O)cc2)c(N)[nH]1 : -0.24
10. COc1ccc2c(c1)NP(=S)(Oc1ccccc1)N2 (stereo not drawn) : 18.7
11. C[C@H]1[C@H](C)N1CC(O)Cn1ccnc1[N+](=O)[O-] (stereo partly drawn) : 3.06
12. O=C(Oc1ccccc1)N(c1ccccc1)c1ccccc1 : 5.51
13. COc1cc(C=C2C(=O)NC(=O)NC2=O)ccc1O : 1.49
14. NC=C1C(=O)N(c2ccccc2)C(=O)N(c2ccccc2)C1=O : 0.46
15. C1CC2NCCC3NCCC(N1)N32 (stereo not drawn) : -0.83
16. c1cncc(C2Nc3cccc4cccc(c34)N2)c1 : 10.3
17. O=C(O)CCCC[C@@H]1SC[C@@H]2NC(=O)N[C@@H]21 : 1.63
18. O=C1CC(c2ccc(O)cc2)Oc2cc(O)cc(O)c21 (stereo not drawn) : 4.1
19. N#CC(C#N)=Cc1ccc(C=C(C#N)C#N)cc1 : 36.5
20. CC1CC(C)OP(=O)(OCCC#N)O1 (stereo not drawn) : -4.51
21. O=C(OC1CCCCC1)c1ccccc1C(=O)OC1CCCCC1 : 7.38
22. CNC(=O)Oc1c(O)ccnc1C : 5.45
23. OCC1CN1C1CCCCC1 (stereo not drawn) : 2.25
24. CN1CCCC1c1ccc(O)nc1 (stereo not drawn) : -1.49
25. CC(C)(C)n1cc(C(=O)c2ccccc2)cc1-c1ccccc1 : 3.13
26. Cc1ccc2c(c1)Oc1ccccc1N=C2 : 8.51
27. CN(C)P(=O)(N(C)C)N1CC1 : -1.16
28. CCCC(=O)N(C)C1=Nc2ccc(Cl)cc2C(c2ccccc2)=[N+]([O-])C1 : 4.49
29. Nc1nc(N)c2cnnn2n1 : 5.35
30. CN1CCC(c2c[nH]c3ccccc23)C1 (stereo not drawn) : 0.53
31. O=C(O)CN1C(=O)CN=C(c2ccccn2)c2cc(Cl)ccc21 : 1.18
32. Cc1ncc([N+](=O)[O-])n1CCOC(N)=O : 2.39
33. O=C(NC(=O)c1c(F)cccc1F)Nc1cc(Cl)c(F)c(Cl)c1F : -1.38
34. O=[As](O)(O)c1ccc(/N=N/c2ccc(O)cc2)cc1 : 7.76
35. NN=C1C(Cl)=C(Cl)C(Cl)=C1Cl : 38.7
36. Cc1nccc2c1[nH]c1cc(O)ccc12 : 2.57
37. CCCCOP(=O)(OCCCC)C1(C)CC(=O)CC(C)(C)C1 (stereo not drawn) : 1.05
38. CN1CCN(c2nc(N)c(Br)c(Cl)n2)CC1 : 2.84
39. CCC1CN1P(=O)(Oc1ccc(Cl)cc1)N1CC1CC (stereo not drawn) : 4.31
40. C=CCNC(=S)Nc1ccc(OC(=O)Nc2ccc(Cl)c(Cl)c2)cc1 : 2.25
41. CCC(CO)NC(=O)C1C=C2c3cccc4[nH]cc(c34)CC2N(C)C1 (stereo not drawn) : -0.04
42. SC1=NC2(CCCCC2)NC12CCCCC2 : 4.26
43. CC12CCC3C(CCC4Cc5[nH]c6ccccc6c5CC43C)C1CCC2O (stereo not drawn) : -1.61
44. CC(C)(C)c1cc(C=C(C#N)C#N)cc(C(C)(C)C)c1O : 14.2
45. COc1c(OP2(=S)OCC(C)(C)CO2)cnn(C2CCCCC2)c1=O : -1.61
46. CS(=O)(=O)O.O=C1CCC2(O)[C@@H]3Cc4ccc(O)c5c4[C@]2(CCN3Cc2ccoc2)C1O5 (stereo partly drawn) : 1.48
47. O=[N+]([O-])c1cc([As](=O)(O)c2ccc(O)c([N+](=O)[O-])c2)ccc1O : -1.08
48. c1ccc2c(c1)Sc1ccccc1N2CC1CN2CCC1CC2 (stereo not drawn) : 3.26
